tested on: Staphylococcus aureus; test: In vitro minimum inhibitory concentration against growth of Staphylococcus aureus Smith; assay type: functional
Measured MIC, listed per entry.
Please state the number and follow it with the unit.

Look over these answered cases.
CNn1cc(C(=O)O)c(=O)c2cc(F)c(N3CCN(C)CC3)cc21 [AMIFLOXACIN]; 1 µg/mL
CCn1cc(C(=O)O)c(=O)c2cc(F)c(N3CCNCC3)cc21 [NORFLOXACIN]; 1.95 µg/mL
CNn1cc(C(=O)O)c(=O)c2cc(F)c(N3CCNCC3)cc21; 1.95 µg/mL

# input for lookup
Asked: Find the measured MIC of CCn1cc(C(=O)O)c(=O)c2cc(F)c(N3CCN(C)CC3)cc21 [PEFLOXACIN] and report it.
Given back: 1 µg/mL
